// provenance: patent US9274101B2

test system: HepG2 cells; assay: HepG2 cells cultured on CYTODEX 3 microcarriers, energy sources; type: cell-based, human; conditions: Homo sapiens, HepG2, 68 h; Conc. 1.00 mM; read-out: Responses of HepG2 Cells Cultured on Microcarriers After 68 hours in Culture and a 4 hour Color Development Period
activity at 1000 µM listing for selected compounds.
The reply should contain only the number, in %.

# annotated cases, reported activity at 1000 µM shown
[
  {
    "smiles_repr": "O=C(CO)[C@@H](O)[C@H](O)[C@H](O)CO",
    "activity at 1000 µM [%]": 115
  },
  {
    "smiles_repr": "O=C[C@H](O)[C@@H](O)[C@@H](O)[C@H](O)CO",
    "activity at 1000 µM [%]": 109
  }
]

Query compound follows.
activity at 1000 µM reading for Cc1cn([C@H]2C[C@H](O)[C@@H](CO)O2)c(=O)[nH]c1=O : 99.4
